Give measured IC50 for each item. Keep answers brief.
target: HSV Pol (Human herpesvirus 1, UniProt P04293); construct: in presence of the whole catalytic subunit; assay: Catalytic subunit activity filter binding assay (Pol alone); assay type: biochemical, herpes simplex virus
Sequence (P04293 whole entry N46K): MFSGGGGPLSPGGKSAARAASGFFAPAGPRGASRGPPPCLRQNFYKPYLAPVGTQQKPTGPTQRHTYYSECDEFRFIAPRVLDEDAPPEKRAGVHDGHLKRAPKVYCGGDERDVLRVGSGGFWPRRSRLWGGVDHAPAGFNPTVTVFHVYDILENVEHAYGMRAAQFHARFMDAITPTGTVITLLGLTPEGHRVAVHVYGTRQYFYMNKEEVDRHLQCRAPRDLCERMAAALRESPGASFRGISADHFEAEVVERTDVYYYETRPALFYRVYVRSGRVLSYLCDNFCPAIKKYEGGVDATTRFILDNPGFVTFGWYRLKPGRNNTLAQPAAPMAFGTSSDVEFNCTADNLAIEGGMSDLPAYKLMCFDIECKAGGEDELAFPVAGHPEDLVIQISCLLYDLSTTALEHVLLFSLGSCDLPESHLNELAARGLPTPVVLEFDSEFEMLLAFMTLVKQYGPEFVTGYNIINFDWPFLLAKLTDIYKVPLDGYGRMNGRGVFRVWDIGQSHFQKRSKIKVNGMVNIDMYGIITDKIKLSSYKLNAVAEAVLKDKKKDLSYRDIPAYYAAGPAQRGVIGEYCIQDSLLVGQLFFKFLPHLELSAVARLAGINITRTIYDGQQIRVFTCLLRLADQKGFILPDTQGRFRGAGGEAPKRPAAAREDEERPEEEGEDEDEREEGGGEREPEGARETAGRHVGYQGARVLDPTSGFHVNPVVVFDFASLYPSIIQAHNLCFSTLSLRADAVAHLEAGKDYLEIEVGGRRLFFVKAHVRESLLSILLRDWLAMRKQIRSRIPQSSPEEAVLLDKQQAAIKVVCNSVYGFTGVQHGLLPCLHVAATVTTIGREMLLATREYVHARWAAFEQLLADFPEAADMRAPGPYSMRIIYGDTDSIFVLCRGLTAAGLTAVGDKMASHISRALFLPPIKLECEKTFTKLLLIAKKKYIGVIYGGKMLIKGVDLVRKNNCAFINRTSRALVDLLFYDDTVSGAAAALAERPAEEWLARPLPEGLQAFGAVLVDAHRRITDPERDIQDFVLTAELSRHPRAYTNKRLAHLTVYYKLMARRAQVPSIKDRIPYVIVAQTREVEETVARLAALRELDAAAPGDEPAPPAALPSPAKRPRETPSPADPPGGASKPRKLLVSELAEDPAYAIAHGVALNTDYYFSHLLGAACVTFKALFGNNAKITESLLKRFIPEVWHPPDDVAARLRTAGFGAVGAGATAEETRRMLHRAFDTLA
Answers are plain numbers, in µM.

compound	IC50 [µM]
CSCCC(C(=O)O)N1C(=O)/C(=C/c2ccc(Cl)cc2Cl)SC1=S (stereo not shown)	25

Now for the compound whose IC50 we want.
Query: Fill in the recorded IC50 for this compound, with HSV Pol (Human herpesvirus 1, UniProt P04293) as test system: CC(C)C(C(=O)O)N1C(=O)/C(=C/c2ccc(Cl)cc2Cl)SC1=S (stereo not shown)
Result: 25
